SYSTEM TESTED: T1, human ActRIIB (human, UniProt Q13705 19-137, limits assumed)
T1 construct: antigen in MSD-SET; also called ACVR2B; ActR2B
T1 sequence: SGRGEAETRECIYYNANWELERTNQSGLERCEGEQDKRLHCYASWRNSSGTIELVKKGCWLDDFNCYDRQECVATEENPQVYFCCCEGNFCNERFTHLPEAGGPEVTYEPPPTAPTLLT
MEASUREMENT DESCRIPTION: MSD-SET
Known pKd of a selection of binders
Notebook: values listed as pKd are -log10 of the concentration (mol/L).

Please review the following examples before continuing.
BINDER: Antibody Fasnetsküchla (antibody, V domains shown, full-length IgG) VH: QVQLVQSGAEVKKPGASVKVSCKASGYTFTSSYINWVRQAPGQGLEWMGTINAVSGSTSYAQKFQGRVTMTRDTSISTAYMELSRLRSDDTAVYYCARGGWFDYWGQGTLVTVSS VL: QSALTQPASVSGSPGQSITISCTGTSSDVGSANYVNWYQQHPGKAPKPMIYGVSRRPSGVSNRFSGSKSGNTASLTISGLQAEDEADYYCGTFAGGKYYGVFGGGTKLTVL
QUANTITY NAME: pKd
ASSAY RESULT: 11.10
--
BINDER: Antibody Rippla (antibody, V domains shown, full-length IgG; also called Ripp1a) VH: QVQLVQSGAEVRKPGASVKVSCKASGYTFTSSYINWVRQAPGQGLEWMGTINPVSGSTSYAQKFQGRVTMTRDTSISTAYMELSRLRSDDTAVYYCARGGWFDYWGQGTLVTVSS VL: QSALTQPASVSGSPGQSITISCTGTSSDVGSYNRVNWYQQHPGKAPKLMIYGVSKRESGVSNRFSGSKSGNTASLTISGLQAEDEADYYCGTFAGGRYYGVFGGGTKLTVL
QUANTITY NAME: pKd
ASSAY RESULT: 11.30

Turning now to a further binder:
What value of pKd has been recorded for this entry: Rippla Fab (Fab, V domains shown, Fab) VH: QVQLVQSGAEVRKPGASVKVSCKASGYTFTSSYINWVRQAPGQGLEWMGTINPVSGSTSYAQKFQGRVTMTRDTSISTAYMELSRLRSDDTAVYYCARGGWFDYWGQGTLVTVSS VL: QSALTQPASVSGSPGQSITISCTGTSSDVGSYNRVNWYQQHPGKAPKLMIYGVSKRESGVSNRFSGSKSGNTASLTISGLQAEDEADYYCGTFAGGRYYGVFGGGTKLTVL
11.22
